Below is a list of entries, each paired with its recorded protein stability index value.
B1: HDAC6 (parent)
chain: DLMETTQYMNEGELRVLADTYDSV

- Variants of: B1
- test.method.notes: protein stability index of a GFP-peptide fusion (GPS, HEK-293T) (PSI 1-6); higher = more stable;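 note: lentivirally expressed fusions sorted by FACS into six bins by GFP to DsRed ratio, PSI derived from sequencing read proportions per bin multiplied by bin number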
- condition.parameters: c terminus: a fixed tail appended
quantity.measured: protein stability index

variant.string	quantity.measured	value.observed
T5L	protein stability index	1.39
E4R	protein stability index	3.36
E4T	protein stability index	3
Y21I	protein stability index	1.79
S23C	protein stability index	2.48
L17N	protein stability index	4.55
E11F	protein stability index	2
N10D	protein stability index	3.95
D1N	protein stability index	2.18
Y21F	protein stability index	2.24
V24I	protein stability index	2.34
R15N	protein stability index	2.67
L2F	protein stability index	3.49
V24W	protein stability index	1.66
M9K	protein stability index	4.24
V24K	protein stability index	1.77
G12M	protein stability index	3.18
Y21T	protein stability index	3.1
T5F	protein stability index	2.03
M9L	protein stability index	3.84
S23L	protein stability index	1.94
G12R	protein stability index	3.71
Q7T	protein stability index	2.37
A18Y	protein stability index	1.87
L14F	protein stability index	1.74
D22Q	protein stability index	2.29
L14C	protein stability index	1.97
A18H	protein stability index	2.06
R15I	protein stability index	2.2
S23H	protein stability index	2.37
V16A	protein stability index	3.72
L17W	protein stability index	2.33
M9T	protein stability index	4.82
G12H	protein stability index	3.46
G12V	protein stability index	2.85
Q7S	protein stability index	2.02
T5I	protein stability index	2.67
M9Q	protein stability index	4.92
D22G	protein stability index	1.76
G12F	protein stability index	2.85
M9P	protein stability index	4.55
E13P	protein stability index	3.74
T5H	protein stability index	1.89
D1R	protein stability index	3.01
R15E	protein stability index	2.01
N10Y	protein stability index	3.32
V16K	protein stability index	3.91
Q7N	protein stability index	2.12
G12C	protein stability index	3.07
D22E	protein stability index	1.57
A18G	protein stability index	2.86
Y8F	protein stability index	1.65
L2M	protein stability index	3.77
T6V	protein stability index	1.46
E13R	protein stability index	3.63
D22I	protein stability index	2.16
A18P	protein stability index	3.97
L17M	protein stability index	2.01
M9C	protein stability index	4.25
E13V	protein stability index	3.53
E11W	protein stability index	1.89
Y21M	protein stability index	1.44
E4C	protein stability index	1.74
Y8C	protein stability index	4.07
Q7H	protein stability index	1.14
T6N	protein stability index	2.42
N10G	protein stability index	3.14
Y21N	protein stability index	1.61
G12D	protein stability index	4.79
M3I	protein stability index	2.13
L2V	protein stability index	1.62
L2N	protein stability index	4.32
R15M	protein stability index	1.89
D19N	protein stability index	1.79
L17K	protein stability index	2.75
D19E	protein stability index	2.03
T20A	protein stability index	2.49
E4I	protein stability index	1.11
D22F	protein stability index	1
V16Y	protein stability index	3.9
M9N	protein stability index	4.12
A18I	protein stability index	1.83
L14T	protein stability index	3.56
E11R	protein stability index	3.19
E4P	protein stability index	2.23
D22Y	protein stability index	2.7
L17C	protein stability index	3.03
T5S	protein stability index	1.96
Q7E	protein stability index	1.97
E11T	protein stability index	2.9
A18V	protein stability index	2.4
